# systemTested: T1, human CD3ε expressed on the cell surface of T cells (Jurkat cells; human CD8+ T cells) (human, UniProt P07766 23-207)
# T1 construct: whole, on cells; also called native CD3ε embedded in the TCR complex on Jurkat cells
# experiment: cell-based ELISA on Jurkat cells, CD3ε-deficient Jurkat subtracted
Reported EC50 values for a set of binders
Form entry: value (nM) — number only.

| binder | unitText | EC50 |
| --- | --- | --- |
| clone-02 (antibody, V domains shown, Recombinant rabbit IgG; also called Clone 2) VH: QSLEESGGRLVTPGTPLTLTCTVSGFPLSAYAMIWVRQAPGKGLEWIGMIIRSGTVYYANWAKGRFTISKTSTTVDLKITSPTTEDTATYFCARRHYNADGYPIGIGDLWGPGTLVTVSS VL: AQVLTQTPSSVSAVVGGTVTISCQSSESVYSNNRLSWFQQKPGQPPKLLIYSASTLASGVPSRFKGSGSGTQFTLTITDLECDDAATYFCQGEFSCSSVDCFSFGGGTEVVVKG | nM | 0.71 |
| clone-03 (antibody, V domains shown, Recombinant rabbit IgG; also called Clone 3) VH: QSLEESGGRLVTPGTPLTLTCTVSGFPLNRYAMLWVRQAPGKGLEWIGLITRADKKYYASWAKGRFTISKTSTTVDLEITGPTTEDTATYFCARRHYNTDGYPIAIGDLWGPGTLVTVSS VL: AQVLTQTPSSVSAAVGGTVTISCQSNENIYSNNRLSWFQQKPGQPPNQLIYSASSLASGVPSRFKGSGSGTQFTLTISDLECDDAATYYCQGEFNCNSADCFTFGGGTEVVVKG | nM | 1.45 |
| clone-01 (antibody, V domains shown, Recombinant rabbit IgG; also called purified monoclonal rabbit anti-CD3ε antibody clone-01) VH: QSVEESGGRLVTPGTPLTLTCTVSGFPLSSYAMIWVRQAPGKGLEWIGMILRAGNIYYASWAKGRFTISKTSTTVDLKITSPTTEDTATYFCARRQYNTDGYPIGIGDLWGPGTLVTVSS VL: AQVLTQTASSVSAAVGGTVTISCQSSESVYNNNRLSWFQQKPGQPPKQLIYSASSLASGVPSRFKGSGSGTQFTLTISDLECDDAATYYCQGEFSCSSADCFTFGGGTEVVVKG | nM | 0.58 |
| clone-10 (antibody, V domains shown, Recombinant rabbit IgG) VH: QSLEESGGRLVTPGTPLTLTCTVSGFPLSSFAMLWVRQAPGKGLEWIGMIMRAHNMYYASWAKGRFTISKTSTTVDLEITSPTTEDTATYFCARRHYNTYGYPIAIGDLWGPGTLVTVSS VL: AQVLTQTPSSVSAAVGGTATISCQSNENIYSNNRLSWFQQKAGQPPNQLIYSASSLASGVPSRFKGSGSGTQFTLTISDLECDDAATYYCQGEFSCSSADCFTFGGGTEVVVKG | nM | 0.35 |
| clone-06 (antibody, V domains shown, Recombinant rabbit IgG; also called Clone 6) VH: QSVEESGGRLVTPGTPLTLTCTVSGFPLSSYAMIWVRQAPGKGLEWIGMILRAGNIYYASWVKGRVTISKTSTTVDLKITSPTTEDTATYFCARRHYNREGYPIGIGDLWGPGTLVTVSS VL: AQVLTQTPSSVSAAVGGTVTISCQSSESVYNNKRLSWFQQKPGQPPKQLIYTASSLASGVPSRFKGSGSGTQFTLTISDLECDDAATYYCQGEFTCSNADCFTFGGGTEVVVKG | nM | 0.67 |

As a next step, examine the binder that follows.
Fill in reported EC50 for this entry: clone-11 (antibody, V domains shown, Recombinant rabbit IgG) VH: QSLEESGGRLVTPGTPLTLTCTVSGFPLSSYAMGWFRQAPGKGLEWIGMILRADNTYYASWVNGRFTISKTSTTVDLKITSPTTEDTATYFCARRHYNTYGYPVAIGDLWGPGTLVTVSS VL: AQVLTQTPSSVSAAVGGTVTINCQSSQSVYNNNRLSWFQQKPGQPPKLLIYTASSLASGVPSRFKGSGSGTEFTLTISDLECADAATYYCQGEFSCSSADCFTFGGGTEVVVKG
0.28

Hey, just so you know, these numbers are from patent US20180244777A1.
